tested on: HEK-293T; experiment: Multiplex assay against HEK293T; type: toxicity, cell-based; conditions: human, 24 h, 1 µM, compound concentration 1 uM, replicate 1
Known Population Fragmented Nuclei (%) of a selection of compounds

COMPOUND	TARGET_DESC	Population Fragmented Nuclei (%)
CC(=O)c1cc(-c2cc(C(=O)NC3CC3)ccc2C)c2ncccn12	HEK-293T	15
CCOc1cc2ncc(C#N)c(Nc3ccc(OCc4cccc(F)c4)c(Cl)c3)c2cc1NC(=O)/C=C/CN(C)C	HEK-293T	14
CCCn1c(=O)c2[nH]c(C34CC5CC(CC3C5)C4)nc2n(CCC)c1=O	HEK-293T	14
CCn1c(-c2nonc2N)nc2cnc(Oc3cccc(NC(=O)c4ccc(OCCN5CCOCC5)cc4)c3)cc21 [GSK-269962A]	HEK-293T	18
Cl.Cl.NC1(c2ccc(-c3nc4ccn5c(=O)[nH]nc5c4cc3-c3ccccc3)cc2)CCC1	HEK-293T	20
Cl.Cl.Nc1ncnc2c1c(-c1cccc(OCc3ccccc3)c1)cn2[C@H]1C[C@@H](CN2CCC2)C1	HEK-293T	14
Nc1nc2c(c(N3CCNCC3)n1)CCC1=C2[C@@H]2CCCC[C@@H]2O1	HEK-293T	12
CN(C)CCOc1ccc(-c2nc(-c3ccncc3)c(-c3ccc4c(c3)CC/C4=N\O)[nH]2)cc1	HEK-293T	15
